Overview of recorded TGI for various compounds
Test system: NCI-H226 lung
Assay: NCI tumour cell line growth inhibition, 48 h
The response must be a number in µM with no trailing unit.

// solved cases for TGI follow
>>> result_number("O=C(NO)c1cnc(N2CCN(S(=O)(=O)c3ccc4ccccc4c3)CC2)nc1")
2.55
>>> result_number("O=c1cc(-c2ccccc2Cl)[nH]c2cc3c(cc12)OCO3")
0.689
>>> result_number("COc1cccc2c1C(=O)c1c(O)c3c(c(O)c1C2=O)C[C@@](O)(/C(C)=N/NC(=O)c1ccc(Cl)c(Cl)c1)C[C@@H]3OC1CC(N)C(O)C(C)O1 (stereo not given in full)")
0.231

Okay, now this compound:
Quick note, TGI for COc1ccc(C2C(Cl)C(=O)N2NC(=O)c2ccc(N)cc2)cc1OC (stereo not given) landed at 38.3
